assay: π value of R^4 group; assay type: physicochemical; design: key: π from partition coefficients of derivative (Px) vs parent (PH); conditions: substituent R^4
readout.name: π Value for R^4

Sample answers from the record:
CCCCCCCCCCCCC(Oc1ccc(C(C)(C)CC(C)(C)C)cc1C(C)(C)CC(C)(C)C)C(=O)NC1=NN(c2c(Cl)cc(Cl)cc2Cl)C(=O)C1n1cccn1 (stereo not shown)	6.5
CCCCCCCCCCCCCCCCC(Oc1ccc(C(C)(C)CC)cc1C(C)(C)CC)C(=O)NC1=NN(c2c(Cl)cc(Cl)cc2Cl)C(=O)C1n1cccn1 (stereo not shown)	8.6

[I] CCCCCCC(Oc1ccc(C(C)(C)CC(C)(C)C)cc1C(C)(C)CC(C)(C)C)C(=O)NC1=NN(c2c(Cl)cc(Cl)cc2Cl)C(=O)C1n1cccn1 (stereo not shown)
[II] CCCCCCCCCCCCC(Oc1ccc(C(C)(C)CC(C)(C)C)cc1)C(=O)NC1=NN(c2c(Cl)cc(Cl)cc2Cl)C(=O)C1n1cccn1 (stereo not shown)
Select one: I or II . Criterion: greater recorded π Value for R^4. # answer = label of selected item
II
(II: 6.5, I: 3.2)

---

assay: π value of R^4 group; assay type: physicochemical; set-up: key: π from partition coefficients of derivative (Px) vs parent (PH); settings: substituent R^4
readout.name: π Value for R^4

Previously resolved entries follow.
CCCCCCCCCCCCC(Oc1cc(C(C)(C)C)cc(C(C)(C)C)c1)C(=O)NC1=NN(c2c(Cl)cc(Cl)cc2Cl)C(=O)C1n1cccn1 (stereo not drawn)	6.5
CCCCCCC(Oc1cc2c(cc1C(C)(C)CC(C)(C)C)OC(C)(C)CC2(C)C)C(=O)NC1=NN(c2c(Cl)cc(Cl)cc2Cl)C(=O)C1n1cccn1 (stereo not drawn)	4.3
CCCCCCCCC(Oc1ccc(C(C)(C)CC(C)(C)C)cc1C(C)(C)CC(C)(C)C)C(=O)NC1=NN(c2c(Cl)cc(Cl)cc2Cl)C(=O)C1n1cccn1 (stereo not drawn)	4.3
CCCCCCCCCCCCC(Oc1ccc(C(C)(C)CC)cc1C(C)(C)CC)C(=O)NC1=NN(c2c(Cl)cc(Cl)cc2Cl)C(=O)C1n1cccn1 (stereo not drawn)	6.5
CCCCCCCCCCCCC(Oc1ccc(CCCCC)cc1CCCCC)C(=O)NC1=NN(c2c(Cl)cc(Cl)cc2Cl)C(=O)C1n1cccn1 (stereo not drawn)	6.5
CCCCCCCCC(Oc1ccc(C(C)(C)CC)cc1C(C)(C)CC)C(=O)NC1=NN(c2c(Cl)cc(Cl)cc2Cl)C(=O)C1n1cccn1 (stereo not drawn)	4.3

[P] CCCCCCC(Oc1ccc(C(C)(C)CC)cc1C(C)(C)CC)C(=O)NC1=NN(c2c(Cl)cc(Cl)cc2Cl)C(=O)C1n1cccn1 (stereo not drawn)
[Q] CCCCC(Oc1ccc(C(C)(C)CC)cc1C(C)(C)CC)C(=O)NC1=NN(c2c(Cl)cc(Cl)cc2Cl)C(=O)C1n1cccn1 (stereo not drawn)
[R] CCCCCCCCCCCCC(Oc1ccc(C)cc1C(C)(C)CC(C)(C)C)C(=O)NC1=NN(c2c(Cl)cc(Cl)cc2Cl)C(=O)C1n1cccn1 (stereo not drawn)
Form: Sort by [π Value for R^4] Order [ ascending ] Record the ranking as a list of labels in the requested order.
Q, P, R
